Attribute: % inh.
# assayed-target: Recombinant human LTC4 synthase (Homo sapiens)
# Construct: made in house; host or cells: Pichia pastoris
# Sequence (Q16873 whole entry): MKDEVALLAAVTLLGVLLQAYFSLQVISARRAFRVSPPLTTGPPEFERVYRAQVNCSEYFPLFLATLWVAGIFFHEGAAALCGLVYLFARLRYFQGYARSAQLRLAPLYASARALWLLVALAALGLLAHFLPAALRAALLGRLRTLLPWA
# procedure-details: LTC4 synthase in vitro assay (HTRF detection of LTC4)
# Format: biochemical
# run-conditions: total concentration of title compound in the assay 10 μM; HTRF method
Give the value, in units of %, as a plain number.

molecular-string: O=C(Nc1ccc(S(=O)(=O)c2ccc(NC(=O)c3ccc(C(F)(F)F)cc3)c(C(=O)O)c2)cc1C(=O)O)c1ccc(C(F)(F)F)cc1
assayed-target: Recombinant human LTC4 synthase (Homo sapiens)
readout-name: % inh.
result-value: 97
//
molecular-string: O=C(Nc1ccc(Oc2ccc(NC(=O)c3cc([N+](=O)[O-])ccc3Cl)c(C(=O)O)c2)cc1C(=O)O)c1cccc(Cl)c1
assayed-target: Recombinant human LTC4 synthase (Homo sapiens)
readout-name: % inh.
result-value: 99
//
molecular-string: O=C(Nc1ccc(Oc2ccc(NC(=O)c3cc(Cl)ccc3F)c(C(=O)O)c2)cc1C(=O)O)c1cccc(Cl)c1
assayed-target: Recombinant human LTC4 synthase (Homo sapiens)
readout-name: % inh.
result-value: 100
//
molecular-string: Cc1c(F)cccc1S(=O)(=O)Nc1ccc(Oc2ccc(N(C)C(=O)c3ccc(OC(C)C)cc3)c(C(=O)O)c2)cc1
assayed-target: Recombinant human LTC4 synthase (Homo sapiens)
readout-name: % inh.
result-value: 72
//
molecular-string: CC(C)(C)c1ccc(C(=O)Nc2ccc(Oc3ccc(NC(=O)c4ccc(Cl)cc4Cl)c(C(=O)O)c3)cc2)cc1
assayed-target: Recombinant human LTC4 synthase (Homo sapiens)
readout-name: % inh.
result-value: 100

Item `CCCCc1ccc(C(=O)Nc2ccc(Oc3ccc(NS(=O)(=O)c4ccccc4)c(C(=O)O)c3)cc2C(=O)O)cc1` : provide % inh. 100

Hello, please tell me recorded % inh. for this one: `O=C(Nc1ccc(Oc2ccc(NC(=O)c3cccc(Cl)c3)c(C(=O)O)c2)cc1C(=O)O)c1ccc(SC(F)(F)F)cc1` 98
